Data origin: paper PMC10812921

system name: POU1 (OCT1 POU domain);BOB1 (OBF1, OCA-B) (human;human, UniProt P14859;Q16633 260-458;1-256, |)
Sequence (P14859 260-458, one chain of several): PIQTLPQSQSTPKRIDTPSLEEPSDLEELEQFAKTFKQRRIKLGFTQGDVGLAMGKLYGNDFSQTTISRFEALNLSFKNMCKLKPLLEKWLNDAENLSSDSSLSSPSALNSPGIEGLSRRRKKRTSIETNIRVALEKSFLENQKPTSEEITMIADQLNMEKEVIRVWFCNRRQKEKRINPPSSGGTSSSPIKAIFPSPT
procedure summary: EMSA-SELEX-seq; with BOB1 (ternary complex band); 20 mM Tris-HCl pH 7.6, 140 mM NaCl, 10% glycerol, 0.5 mM EDTA, 0.05% Triton X-100, 0.1 mg/mL BSA, 0.1 mg/mL poly(dI-dC), 5 mM DTT, room temperature, 20 min; high values mean tight binding
measurement parameters: protein: recombinant;recombinant; copies: 1;1; dsDNA, one strand shown
measurement label: binding signal

// query # binding signal lookup, item `AAGTGAAC`
// result 0.0254 % of ANNNNAAN 8-mers

// query I'd like to know its binding signal. The sequence in question is `ATGGTAAG`
// result 0.071 % of ANNNNAAN 8-mers

// query Dear colleague, I am looking for the recorded binding signal of the following sequence: `AAGCGAAT`
// result 0.0531 % of ANNNNAAN 8-mers

// query What does the record list as binding signal for `AGATTAAT` ?
// result 0.0901 % of ANNNNAAN 8-mers

// query Which binding signal is listed for `ACCTTAAT` ?
// result 0.0418 % of ANNNNAAN 8-mers

// query Using the record for `AAGCCAAT` , report its binding signal.
// result 0.0261 % of ANNNNAAN 8-mers

// query Entry `ACTTAAAG` has what binding signal?
// result 0.0328 % of ANNNNAAN 8-mers

// query binding signal for `ATGATAAA` ?
// result 0.0644 % of ANNNNAAN 8-mers

// query What does the data say about its binding signal? Entry: `AAAGGAAA`
// result 0.144 % of ANNNNAAN 8-mers

// query Requested field: binding signal. Item: `ACCACAAG`
// result 0.0113 % of ANNNNAAN 8-mers

// query Can you look up the measured binding signal of `AATTAAAA` for me?
// result 0.156 % of ANNNNAAN 8-mers

// query I would be grateful if you could share the reported binding signal for `ATCACAAT` .
// result 0.039 % of ANNNNAAN 8-mers

// query Name the reported binding signal value associated with the sequence `ATGAGAAG`
// result 0.0652 % of ANNNNAAN 8-mers

// query Record request: binding signal value, item `AATCCAAG`
// result 0.0425 % of ANNNNAAN 8-mers

// query Please give the measured binding signal for this sequence: `AAGGCAAC`
// result 0.0195 % of ANNNNAAN 8-mers

// query Bench note: what binding signal did `ATTGCAAA` show?
// result 0.322 % of ANNNNAAN 8-mers

// query Quick one: binding signal for `ATTGAAAG` ?
// result 0.0632 % of ANNNNAAN 8-mers

// query I am curious: what binding signal value has been reported for `ATAGAAAA` ?
// result 0.0695 % of ANNNNAAN 8-mers

// query Entry `AGTTCAAA` : reported binding signal = ?
// result 0.0386 % of ANNNNAAN 8-mers

// query For `AGTTTAAT` , what is its reported binding signal?
// result 0.0882 % of ANNNNAAN 8-mers

// query Dear colleague, I am looking for the recorded binding signal of the following sequence: `ACGATAAT`
// result 0.0535 % of ANNNNAAN 8-mers

// query Tell me the measured binding signal of `AGCTAAAT` , please.
// result 0.0738 % of ANNNNAAN 8-mers

// query Which binding signal value belongs to `AGCGAAAG` ?
// result 0.0332 % of ANNNNAAN 8-mers

// query # get_value(readout='binding signal', item= `ACACAAAT` )
// result 0.175 % of ANNNNAAN 8-mers

// query Given the entry `ATTCGAAG` , report its measured binding signal.
// result 0.0464 % of ANNNNAAN 8-mers

// query So what's the measured binding signal for this one? `ACGTAAAA`
// result 0.0823 % of ANNNNAAN 8-mers

// query So what's the measured binding signal for this one? `AATGGAAC`
// result 0.0449 % of ANNNNAAN 8-mers

// query Which binding signal is listed for `AGGCCAAA` ?
// result 0.0242 % of ANNNNAAN 8-mers

// query Which binding signal value belongs to `ATTGCAAC` ?
// result 0.0195 % of ANNNNAAN 8-mers

// query Which binding signal is listed for `ATATAAAG` ?
// result 0.0597 % of ANNNNAAN 8-mers

// query I have this sequence here, `AGTCTAAC` , and I need its recorded binding signal.
// result 0.0199 % of ANNNNAAN 8-mers

// query Quick one: binding signal for `ATAGCAAA` ?
// result 0.078 % of ANNNNAAN 8-mers

// query Which value of binding signal has been reported for `ACGCCAAC` in the records?
// result 0.0121 % of ANNNNAAN 8-mers

// query Param item = `ATCAAAAC` ; retrieve measured binding signal.
// result 0.0539 % of ANNNNAAN 8-mers

// query Report binding signal for `ATCGGAAT` please.
// result 0.0581 % of ANNNNAAN 8-mers

// query Would you kindly share the measured binding signal for `AAGCAAAC` ?
// result 0.0878 % of ANNNNAAN 8-mers

// query Value lookup for binding signal; key = `ACGGTAAA`
// result 0.0507 % of ANNNNAAN 8-mers

// query Entry `AAAAGAAA` has what binding signal?
// result 0.119 % of ANNNNAAN 8-mers

// query What does the record list as binding signal for `AATCGAAA` ?
// result 0.0613 % of ANNNNAAN 8-mers

// query Consider the sequence shown here: `AGTCCAAG` What is its recorded binding signal?
// result 0.0261 % of ANNNNAAN 8-mers

// query Quick one: binding signal of `ACACCAAG` ?
// result 0.0129 % of ANNNNAAN 8-mers

// query Fill blank: measured binding signal of the sequence `AAACTAAT` is ____.
// result 0.0808 % of ANNNNAAN 8-mers

// query Name the reported binding signal value associated with the sequence `ATCGCAAT`
// result 0.0328 % of ANNNNAAN 8-mers

// query I would be grateful if you could share the reported binding signal for `AGTGAAAA` .
// result 0.0956 % of ANNNNAAN 8-mers

// query Recorded binding signal of `ATGCCAAG` , please.
// result 0.025 % of ANNNNAAN 8-mers

// query Requested field: binding signal. Item: `ACAAAAAC`
// result 0.0706 % of ANNNNAAN 8-mers

====

Can you tell me binding signal for the items I'm about to list?
system name: POU2 (OCT2 POU domain);BOB1 (OBF1, OCA-B) (human;human, UniProt P09086;Q16633 175-386;1-256, |)
Sequence 1: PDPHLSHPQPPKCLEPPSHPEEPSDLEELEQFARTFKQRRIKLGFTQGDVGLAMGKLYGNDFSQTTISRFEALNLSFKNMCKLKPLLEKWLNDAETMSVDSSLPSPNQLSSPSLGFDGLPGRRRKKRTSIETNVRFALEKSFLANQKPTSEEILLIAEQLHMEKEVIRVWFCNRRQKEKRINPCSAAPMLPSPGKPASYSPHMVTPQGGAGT
Sequence 2: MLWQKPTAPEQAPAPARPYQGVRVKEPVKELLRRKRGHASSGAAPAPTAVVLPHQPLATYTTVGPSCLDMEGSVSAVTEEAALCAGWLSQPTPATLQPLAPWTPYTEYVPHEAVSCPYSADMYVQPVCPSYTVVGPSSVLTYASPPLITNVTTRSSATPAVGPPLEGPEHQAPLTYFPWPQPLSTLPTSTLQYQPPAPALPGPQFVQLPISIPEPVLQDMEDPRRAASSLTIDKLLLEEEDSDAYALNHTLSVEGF
procedure summary: EMSA-SELEX-seq; with BOB1 (ternary complex band); 20 mM Tris-HCl pH 7.6, 140 mM NaCl, 10% glycerol, 0.5 mM EDTA, 0.05% Triton X-100, 0.1 mg/mL BSA, 0.1 mg/mL poly(dI-dC), 5 mM DTT, room temperature, 20 min; high values mean tight binding
measurement parameters: protein: recombinant;recombinant; copies: 1;1; dsDNA, one strand shown

// query Looking for the measured binding signal of `AGAGAAAT` , can you help?
// result 0.0784 % of ANNNNAAN 8-mers

// query Query (sequence): `AGGCCAAC` ; field requested: binding signal
// result 0.0157 % of ANNNNAAN 8-mers

// query Entry `AAGTCAAA` : reported binding signal = ?
// result 0.165 % of ANNNNAAN 8-mers

// query Give the measured binding signal of `AGGGTAAA` .
// result 0.0966 % of ANNNNAAN 8-mers

// query Please look up its binding signal: `AACCAAAC`
// result 0.0239 % of ANNNNAAN 8-mers

// query Which value of binding signal has been reported for `AAGACAAG` in the records?
// result 0.0281 % of ANNNNAAN 8-mers

// query # binding signal lookup, item `AGCGAAAT`
// result 0.0619 % of ANNNNAAN 8-mers

// query Any idea what its binding signal is? The sequence is `ATAGAAAG`
// result 0.0487 % of ANNNNAAN 8-mers

// query Please give the measured binding signal for this sequence: `ACGTCAAA`
// result 0.0173 % of ANNNNAAN 8-mers

// query Form field: reported binding signal of `AAGGAAAC`
// result 0.038 % of ANNNNAAN 8-mers

// query Any idea what its binding signal is? The sequence is `ACTCTAAA`
// result 0.0248 % of ANNNNAAN 8-mers

// query Name the reported binding signal value associated with the sequence `ATCGCAAA`
// result 0.0413 % of ANNNNAAN 8-mers

// query Consider the sequence shown here: `ATCGTAAG` What is its recorded binding signal?
// result 0.0388 % of ANNNNAAN 8-mers

// query State the recorded binding signal for this entry: `AGGTCAAA`
// result 0.0421 % of ANNNNAAN 8-mers

// query I am curious: what binding signal value has been reported for `AGTGGAAA` ?
// result 0.052 % of ANNNNAAN 8-mers

// query Request the reported binding signal associated with `ACTCCAAG`
// result 0.0124 % of ANNNNAAN 8-mers

// query Which measured binding signal value corresponds to `ATTGCAAT` ?
// result 0.0479 % of ANNNNAAN 8-mers

// query Which binding signal is reported for this sequence? `ATTAAAAT`
// result 0.204 % of ANNNNAAN 8-mers

// query May I ask what binding signal has been recorded for `ATTGGAAG` ?
// result 0.0438 % of ANNNNAAN 8-mers

// query Please look up its binding signal: `ATGCGAAT`
// result 0.128 % of ANNNNAAN 8-mers

// query Fill blank: measured binding signal of the sequence `ATTCAAAC` is ____.
// result 0.125 % of ANNNNAAN 8-mers

// query Any idea what its binding signal is? The sequence is `AAGAGAAC`
// result 0.0289 % of ANNNNAAN 8-mers

// query # query: binding signal of entry `ATCATAAA`
// result 0.0586 % of ANNNNAAN 8-mers

// query For the sequence shown here, `AGTGCAAC` , give the reported binding signal.
// result 0.0215 % of ANNNNAAN 8-mers

// query Entry under review: `AGTCGAAG` . Reported binding signal?
// result 0.0347 % of ANNNNAAN 8-mers

// query So what's the measured binding signal for this one? `AGAGCAAC`
// result 0.0206 % of ANNNNAAN 8-mers

// query Entry under review: `ATACTAAA` . Reported binding signal?
// result 0.0594 % of ANNNNAAN 8-mers

// query Recorded binding signal for `ACCGGAAG` , please?
// result 0.0124 % of ANNNNAAN 8-mers

// query # binding signal lookup, item `AGTATAAT`
// result 0.121 % of ANNNNAAN 8-mers

// query Entry under review: `ATAAGAAT` . Reported binding signal?
// result 0.0892 % of ANNNNAAN 8-mers

// query Which value of binding signal has been reported for `AAAAAAAA` in the records?
// result 0.13 % of ANNNNAAN 8-mers

// query # lookup: binding signal of `AGCGAAAG`
// result 0.0239 % of ANNNNAAN 8-mers

// query Dear colleague, I am looking for the recorded binding signal of the following sequence: `AGTGCAAA`
// result 0.0743 % of ANNNNAAN 8-mers

// query Which value of binding signal has been reported for `AGCCGAAA` in the records?
// result 0.0198 % of ANNNNAAN 8-mers

// query Entry under review: `AAGTAAAA` . Reported binding signal?
// result 0.0693 % of ANNNNAAN 8-mers

// query Name the reported binding signal value associated with the sequence `ATACGAAC`
// result 0.0347 % of ANNNNAAN 8-mers

// query For the sequence `ATAAAAAT` , what binding signal is on record?
// result 0.09 % of ANNNNAAN 8-mers

// query Can you look up the measured binding signal of `AAAGAAAG` for me?
// result 0.0619 % of ANNNNAAN 8-mers

// query Reported binding signal, sequence `ACTCTAAC` : ____
// result 0.0182 % of ANNNNAAN 8-mers

// query Reported binding signal, sequence `AAAATAAG` : ____
// result 0.114 % of ANNNNAAN 8-mers

// query Requested read-out: binding signal. Entry: `AGGGCAAG`
// result 0.0363 % of ANNNNAAN 8-mers

// query // returns reported binding signal for input `AATTCAAA`
// result 0.4 % of ANNNNAAN 8-mers

// query Bench note: what binding signal did `AGTTCAAC` show?
// result 0.0173 % of ANNNNAAN 8-mers

// query Quick one: binding signal of `AGGACAAA` ?
// result 0.0371 % of ANNNNAAN 8-mers

// query What binding signal value was documented for this sequence, `ACGTGAAA` ?
// result 0.0297 % of ANNNNAAN 8-mers

// query binding signal for `AGCAGAAG` ?
// result 0.0264 % of ANNNNAAN 8-mers
